Where a name gives a salt, the structure may show the parent alone.
Kindly supply the reported melting point values for the records listed here.

Worked examples follow.
{"columns": ["Compound", "Obs value"],
 "data": [
  ["CCOc1ccc(-c2nc(/C=C/C(=O)c3ccc(N)cc3)cs2)cc1OCC", "148 to 150 °C"],
  ["CCOc1cc(-c2nc(/C=C/C(=O)c3cc(OC)ccc3OC)cs2)ccc1OC", "79 to 82 °C"],
  ["COc1ccc(-c2nc(CC(=O)Cc3ccc(OC(C)=O)c(OC(C)=O)c3)cs2)cc1OC", "128 to 128.5 °C"],
  ["COc1ccc(-c2nc(/C=C/C(=O)c3ccc(O)cc3)cs2)cc1OC", "174 to 177 °C"],
  ["CCOc1ccc(-c2nc(/C=C/C(=O)c3ccc(C#N)cc3)cs2)cc1OCC", "164 to 167 °C"]
]}

Hi! Can you tell me melting point for each of these compounds?
1. CCOc1ccc(-c2nc(CCC(=O)c3ccccc3)cs2)cc1OCC
2. COc1ccc(-c2nc(/C=C/C(=O)c3cc(C(C)(C)C)c(O)c(C(C)(C)C)c3)cs2)cc1OC
3. CCOc1ccc(-c2nc(CCCc3ncccc3OC)cs2)cc1OCC.Cl.Cl

Data returned:
["113.3 to 113.6 °C", "228 to 230 °C", "169.4 to 171.2 °C"]

Hi! Can you tell me melting point for each of these compounds?
1. CCOc1ccc(-c2nc(/C=C/C(=O)c3ccc(C)cc3)cs2)cc1OCC
2. CCOc1ccc(C(=O)/C=C/c2csc(-c3ccc(OCC)c(OCC)c3)n2)cc1
3. CCOc1ccc(-c2nc(/C=C/C(=O)c3ccccc3O)cs2)cc1OCC (as salt: hydrobromid)

Data returned:
1: 124 to 125.5 °C; 2: 130 to 135 °C; 3: 126 to 127 °C
